Target: human TRPA1 (Homo sapiens (Human), UniProt O75762)
Sequence (O75762 whole entry): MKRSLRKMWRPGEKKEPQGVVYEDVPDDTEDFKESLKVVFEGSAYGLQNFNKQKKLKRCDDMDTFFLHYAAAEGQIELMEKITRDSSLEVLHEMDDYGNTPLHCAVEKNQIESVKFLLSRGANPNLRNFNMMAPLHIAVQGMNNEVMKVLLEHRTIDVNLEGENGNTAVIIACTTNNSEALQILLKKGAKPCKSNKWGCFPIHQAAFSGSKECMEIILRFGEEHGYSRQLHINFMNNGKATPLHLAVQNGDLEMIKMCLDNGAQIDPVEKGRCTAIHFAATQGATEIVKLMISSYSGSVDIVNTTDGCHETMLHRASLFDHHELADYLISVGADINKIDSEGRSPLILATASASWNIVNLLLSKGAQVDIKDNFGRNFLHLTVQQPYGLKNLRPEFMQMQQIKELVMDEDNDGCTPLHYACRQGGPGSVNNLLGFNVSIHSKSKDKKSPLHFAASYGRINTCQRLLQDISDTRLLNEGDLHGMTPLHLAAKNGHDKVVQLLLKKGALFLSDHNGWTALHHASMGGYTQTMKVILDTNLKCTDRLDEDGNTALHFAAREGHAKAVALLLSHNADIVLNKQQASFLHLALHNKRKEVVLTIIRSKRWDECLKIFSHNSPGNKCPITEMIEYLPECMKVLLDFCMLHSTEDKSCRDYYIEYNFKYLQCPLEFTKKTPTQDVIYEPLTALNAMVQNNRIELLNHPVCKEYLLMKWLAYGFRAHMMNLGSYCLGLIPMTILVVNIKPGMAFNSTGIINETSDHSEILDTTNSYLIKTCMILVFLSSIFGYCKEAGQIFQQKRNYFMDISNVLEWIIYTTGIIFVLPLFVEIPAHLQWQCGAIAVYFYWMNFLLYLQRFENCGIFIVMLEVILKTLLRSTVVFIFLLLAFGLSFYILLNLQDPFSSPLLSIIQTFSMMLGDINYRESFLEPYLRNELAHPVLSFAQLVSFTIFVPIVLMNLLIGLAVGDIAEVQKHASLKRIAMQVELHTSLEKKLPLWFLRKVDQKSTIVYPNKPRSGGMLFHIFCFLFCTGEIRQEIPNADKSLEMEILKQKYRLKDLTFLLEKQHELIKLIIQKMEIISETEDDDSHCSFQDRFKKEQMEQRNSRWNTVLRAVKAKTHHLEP
Assay: hTRPA1 CHO Ca2+ AUC EVO (IC50); FLIPR Tetra block of cinnamaldehyde induced calcium influx
Format: cell-based
Settings: Table 3; CHO cells expressing TRPA1; 75 uM cinnamaldehyde (~EC80) as agonist
Measured IC50 by item
measured metric: IC50

1) Cn1nc(C(F)(F)F)cc1-c1ccc(F)c(CNC(=O)[C@@H]2C3CC(C3)N2S(=O)(=O)c2ccc(F)cc2)c1 | 15.7 nM
2) O=C(NCc1cc(-c2ccc(C(F)(F)F)nc2)ccc1F)[C@@H]1C2CC(C2)N1S(=O)(=O)c1ccc(F)cc1 | 6.06 nM
3) O=C(NCc1cc(-c2cnc(C(F)(F)F)nc2)ncc1F)[C@@H]1C2CC(C2)N1S(=O)(=O)c1ccc(F)cc1 | 11.3 nM
4) O=C(NCc1cc(F)cc(-c2cnc(C(F)(F)F)nc2)c1)[C@@H]1C2CC(C2)N1S(=O)(=O)c1ccc(F)cc1 | 8.97 nM

====

Biological target: human TRPA1 (Homo sapiens (Human), UniProt O75762)
Assay: hTRPA1 CHO Ca2+ AUC EVO (IC50); FLIPR Tetra block of cinnamaldehyde induced calcium influx
Format: cell-based
Details: Table 3; CHO cells expressing TRPA1; 75 uM cinnamaldehyde (~EC80) as agonist
measured metric: IC50 (nM)

1) Cn1nc(C(F)(F)F)cc1-c1cc(F)cc(CNC(=O)[C@@H]2C3CC(C3)N2S(=O)(=O)c2ccc(F)cc2)c1 | 27.6
2) O=C(NCc1cc(F)cc(-c2ccc(C(F)(F)F)nc2)c1)[C@@H]1C2CC(C2)N1S(=O)(=O)c1ccc(F)cc1 | 6.11
3) O=C(NCc1cc(-c2ccc(C(F)(F)F)nc2)ncn1)[C@@H]1C2CC(C2)N1S(=O)(=O)c1ccc(F)cc1 | 24.8
4) O=C(NCc1cc(-c2cnc(C(F)(F)F)nc2)nc(OCC(F)(F)F)n1)[C@@H]1C2CC(C2)N1S(=O)(=O)c1ccc(F)cc1 | 4.24
5) O=C(NCc1cc(-c2cnc(C(F)(F)F)nc2)nc(C(F)(F)F)n1)[C@@H]1C2CC(C2)N1S(=O)(=O)c1ccc(F)cc1 | 1.18
6) O=C(NCc1cc(-c2cnc(C(F)(F)F)nc2)nc(C2CC2)n1)[C@@H]1C2CC(C2)N1S(=O)(=O)c1ccc(F)cc1 | 2.15

====

Biological target: human TRPA1 (Homo sapiens (Human), UniProt O75762)
Assay: hTRPA1 CHO Ca2+ AUC EVO (IC50); FLIPR Tetra block of cinnamaldehyde induced calcium influx
Type: cell-based
Conditions: Table 1; CHO cells expressing TRPA1; 75 uM cinnamaldehyde (~EC80) as agonist
Hi! Just check whether IC50 is below 3 nM. Below gives Condition met, equal or above gives Condition not met.

1. O=C(NCc1cc(-c2cnc(C(F)(F)F)nc2)ncc1C(F)F)[C@@H]1C2CC(C2)N1S(=O)(=O)c1ccc(F)cc1 | Condition not met
2. O=C(NCc1cc(-c2cnc(C(F)(F)F)nc2)ncc1C(F)(F)F)[C@@H]1C2CC(C2)N1S(=O)(=O)c1cc2cc(F)ccc2o1 | Condition met
3. O=C(NCc1cc(-c2cnc(C(F)(F)F)nc2)ncc1OC(F)(F)F)[C@@H]1C2CC(C2)N1S(=O)(=O)c1ccc(F)cc1 | Condition met
4. O=C(NCc1cc(Cl)nc(-c2cnc(C(F)(F)F)nc2)c1)[C@@H]1C2CC(C2)N1S(=O)(=O)c1ccc(F)cc1 | Condition not met
5. O=C(NCc1cc(-c2cnc(C(F)(F)F)nc2)nc(C2CC2)n1)[C@@H]1C2CC(C2)N1S(=O)(=O)c1ccc(F)cc1 | Condition met
6. O=C(NCc1cc(-c2cnc(C(F)(F)F)nc2)ncc1C(F)(F)F)[C@@H]1C2CC(C2)N1S(=O)(=O)c1ccc(F)cc1 | Condition met
7. O=C(NCc1cc(-c2cnc(C(F)(F)F)nc2)ccc1F)[C@@H]1C2CC(C2)N1S(=O)(=O)c1ccc(F)cc1 | Condition not met
8. O=C(NCc1cc(-c2cnc(C(F)(F)F)nc2)ncc1Cl)[C@@H]1C2CC(C2)N1S(=O)(=O)c1ccc(F)c(F)c1 | Condition met
9. O=C(NCc1cc(-c2cnc(C(F)(F)F)nc2)ncc1Br)[C@@H]1C2CC(C2)N1S(=O)(=O)c1ccc(F)cc1 | Condition not met

Source of measurements: patent US10597383B2
